# Experimental target: Angiotensin II receptor (Homo sapiens) (UniProt P30556+P50052)
# Experiment notes: In vitro functional antagonistic affinity measured against angiotensin II receptor in paired rings of rabbit aorta
# Format: tissue-based
# Applied conditions: Oryctolagus cuniculus, target entry is the homologue from another species
Measure: pKB

Below are worked cases with known answers.
{"Chemical string": "O=c1c(-c2ccccc2)c(O)c2ccccc2n1Cc1ccc(-c2ccccc2-c2nn[nH]n2)cc1", "pKB": 7.2}
{"Chemical string": "CCCc1cc2c(ncn2C)c(=O)n1Cc1ccc(-c2ccccc2-c2nn[nH]n2)cc1", "pKB": 7.6}
{"Chemical string": "CCOc1ccc2c(O)c(-c3ccccc3)c(=O)n(Cc3ccc(-c4ccccc4-c4nn[nH]n4)cc3)c2c1", "pKB": 7.1}
{"Chemical string": "CSc1ccc2c(O)c(-c3ccccc3)c(=O)n(Cc3ccc(-c4ccccc4-c4nn[nH]n4)cc3)c2c1", "pKB": 6.6}
{"Chemical string": "O=c1c(-c2ccccc2)c(O)c2c(n1Cc1ccc(-c3ccccc3-c3nn[nH]n3)cc1)CCC2", "pKB": 7.2}

(A) CCCCc1nc(Cl)c(CO)n1Cc1ccc(-c2ccccc2C(=O)O)cc1
(B) CCCc1cc2ncn(C)c2c(=O)n1Cc1ccc(-c2ccccc2-c2nn[nH]n2)cc1
Incoming: Sorting by pKB in descending order, would A or B appear first? Answer by quoting the chosen item's label.
Outgoing: B

* * *

# Experimental target: UniProtKB P25104
# Sequence (P25104 whole entry): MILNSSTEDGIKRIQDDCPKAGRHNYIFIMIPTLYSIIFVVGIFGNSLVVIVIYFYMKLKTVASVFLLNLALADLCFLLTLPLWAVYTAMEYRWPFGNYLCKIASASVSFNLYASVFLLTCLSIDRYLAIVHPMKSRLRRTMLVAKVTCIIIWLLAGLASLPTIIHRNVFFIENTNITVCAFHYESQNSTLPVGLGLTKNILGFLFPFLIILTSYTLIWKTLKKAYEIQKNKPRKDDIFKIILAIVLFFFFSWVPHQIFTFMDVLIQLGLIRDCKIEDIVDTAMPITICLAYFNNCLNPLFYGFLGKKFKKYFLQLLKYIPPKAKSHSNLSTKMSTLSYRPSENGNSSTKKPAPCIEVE
Measure: IC50 (µM)

{"Chemical string": "O=c1c(-c2ccccc2)c(O)c2c(n1Cc1ccc(-c3ccccc3-c3nnn[nH]3)cc1)CCC2", "Units label": "µM", "Test value": 1.25}
{"Chemical string": "Cc1ccc2c(O)c(-c3ccccc3)c(=O)n(Cc3ccc(-c4ccccc4-c4nnn[nH]4)cc3)c2n1", "Units label": "µM", "Test value": 1.25}
{"Chemical string": "O=c1c(-c2ccccc2)c(O)c2ccccc2n1Cc1ccc(-c2ccccc2-c2nn[nH]n2)cc1", "Units label": "µM", "Test value": 1.7}

* * *

# Experimental target: Angiotensin II receptor (Homo sapiens) (UniProt P30556+P50052)
# Experiment notes: In vitro functional antagonistic affinity measured against angiotensin II receptor in paired rings of rabbit aorta
# Format: tissue-based
# Applied conditions: Oryctolagus cuniculus, target entry is the homologue from another species
Measure: pKB

{"Molecule": "CCOc1ccc2c(O)c(-c3ccccc3)c(=O)n(Cc3ccc(-c4ccccc4C(=O)O)cc3)c2c1", "Test value": 7.7}
{"Molecule": "CCCCc1nc(Cl)c(CO)n1Cc1ccc(-c2ccccc2-c2nnn[nH]2)cc1 [LOSARTAN]", "Test value": 8.3}
{"Molecule": "CCc1ccc2c(O)c(-c3ccccc3)c(=O)n(Cc3ccc(-c4ccccc4C(=O)O)cc3)c2c1", "Test value": 7.2}
{"Molecule": "CCc1cc2c(O)cc(=O)n(Cc3ccc(-c4ccccc4-c4nn[nH]n4)cc3)c2s1", "Test value": 9.6}
{"Molecule": "CCOc1ccc2c(O)c(Cc3ccccc3)c(=O)n(Cc3ccc(-c4ccccc4C(=O)O)cc3)c2c1", "Test value": 7.8}
{"Molecule": "CCOc1ccc2c(O)cc(=O)n(Cc3ccc(-c4ccccc4-c4nn[nH]n4)cc3)c2c1", "Test value": 8.9}
{"Molecule": "CCCc1cc2nc(O)nc-2c(O)n1Cc1ccc(-c2ccccc2-c2nn[nH]n2)cc1", "Test value": 6.4}
{"Molecule": "O=c1c(-c2ccccc2)c(O)c2ccc([N+](=O)[O-])cc2n1Cc1ccc(-c2ccccc2-c2nn[nH]n2)cc1", "Test value": 7.5}
